testedOn: the molecule itself
assayDetails: AUC
Answer each item with its documented stoichiometry N.
Answers are plain numbers.

[
  {
    "protein": "KRKKQKRKRAKQLRKRLQALEWQLAQIRKELQAAEKEEAQIEE (designed binder) [APHiii (APH3) fused to maltose binding protein (MBP)]",
    "stoichiometry N": 2
  }
]

Now look at this one.
INPUT: Recorded stoichiometry N of KQLKQIEKRLKQIEKRLQAKEWEKAQLRKELQALRKKLAQLRE (designed binder) [APHvi (APH4) fused to maltose binding protein (MBP)] , please.
OUTPUT: 2
